- System: SR leukemia
- ASSAY_INFO: NCI tumour cell line growth inhibition, 48 h
Exercise: state measured TGI for each of the compounds provided.
Answers are plain numbers, in µM.

Here is how some compounds turned out for TGI.
COMPOUND: C=C1C(=O)O[C@H]2[C@H]1CC/C(CNS(=O)(=O)c1ccc3ccccc3c1)=C\CC[C@@]1(C)O[C@@H]21
REPORTED_METRIC: TGI
OBSERVED: 7.12
//
COMPOUND: N#CC(C#N)=Cc1c(O)ccc2ccccc12
REPORTED_METRIC: TGI
OBSERVED: 13.6
//
COMPOUND: CC(=Nc1c2ccccc2nc2ccccc12)N(C)C
REPORTED_METRIC: TGI
OBSERVED: 23.3

# batch size: 3; output TGI per entry
1. Nc1nc2c(c3ncccc13)C(c1ccc(Cl)c(Cl)c1)Cc1ncccc1-2 (stereo not given)
2. CCc1ccc(-c2ccc(=O)n(-c3ccc(S(N)(=O)=O)cc3)n2)cc1
3. Cc1ccccc1S(=O)(=O)N1[C@H](c2ccc(Cl)cc2)C(C(=O)N[C@@H](Cc2ccccc2)C(N)=O)=C[C@@H]1C(C)(C)C

13
0.497
15.4
